system: Coxsackievirus B4; assay: Antiviral activity against human coxsackievirus B4; assay type: functional, organism-based
Calls of active or inactive are those of the source. The calls are words filed in the database; no cut-off is given here.
Reported Property: Activity

Worked cases, answers included:
{"Molecule": "CCCCCCCCCCCCOC(=O)c1cc(O)c(O)c(O)c1 [DODECYL GALLATE]", "Activity": "inactive"}
{"Molecule": "O=C(NCCCCCCNC(=O)c1ccc(O)c(O)c1O)c1ccc(O)c(O)c1O", "Activity": "inactive"}
{"Molecule": "O=C(NCCCCN(CCCNC(=O)c1cc(O)c(O)c(O)c1)C(=O)c1cc(O)c(O)c(O)c1)c1cc(O)c(O)c(O)c1", "Activity": "inactive"}
{"Molecule": "CCCCCOC(=O)c1cc(O)c(O)c(O)c1 [PENTYL GALLATE]", "Activity": "inactive"}
{"Molecule": "CCOC(=O)c1cc(O)c(O)c(O)c1 [ETHYLGALLATE]", "Activity": "inactive"}

(Q) // query Activity value for entry O=C(NCCNC(=O)c1cccc(O)c1O)c1cccc(O)c1O
(A) inactive

(Q) What about O=C(OCCCCOC(=O)c1cc(O)c(O)c(O)c1)c1cc(O)c(O)c(O)c1 ?
(A) inactive
